Taken from paper PMC5045383.

- System: SKM-1 (FLT3-wt)
- Test Details: Cell proliferation assay (CellTiter-Glo)
- Format: cell-based, human
- Experimental Parameters: Homo sapiens, 72 hours
Reported Endpoint: GI50

Solved entries:
>  <Smiles Str>
CC(C)NC[C@@H](C(=O)N1CCN(c2ncnc3c2[C@H](C)C[C@H]3O)CC1)c1ccc(Cl)cc1

>  <GI50>
> 10 µM

$$$$
>  <Smiles Str>
NC1(c2ccc(-c3nc4ccn5c(=O)[nH]nc5c4cc3-c3ccccc3)cc2)CCC1

>  <GI50>
4.6 µM

$$$$
>  <Smiles Str>
CCn1c(-c2nonc2N)nc2c(C#CC(C)(C)O)ncc(OC[C@H]3CCCNC3)c21

>  <GI50>
> 10 µM

$$$$

Query string: Can you look up the measured GI50 of `NC1(C(=O)N[C@@H](CCO)c2ccc(Cl)cc2)CCN(c2ncnc3[nH]ccc23)CC1` for me?
Result string: > 10 µM
